# assay_protocol: Quantitative High-Throughput drug screen in 47 multiple myeloma cell lines against the NCATS MIPE library collection: OPM1_PLB cell viability assay (AID 1918989); also: nearly all actives have a fitted effect of over 40% in size
# condition_details: CellTiter-Glo, 48 h; series mostly up to 45.8 µM
Inconclusive results are not listed. Calls of active or inactive are those of the source. Calls follow the shape of the dose curve; as a rule, active = well fitted cell-killing curve with a large enough effect; inconclusive = small, poorly fitted or top-dose-only effect, or effect the other way; inactive = no such curve, though single readings can be large or run the other way.
Just give me one of these, please: active, inactive

Use these answered entries as a reference point.
Test call for this compound, please: CC(C)=CC[C@@H](O)C1=CC(=O)c2c(O)ccc(O)c2C1=O
active

Test call for this compound, please: O=C(CCN1CCN(C(=O)OCc2cc(Cl)cc(Cl)c2)CC1)c1ccc2[nH]c(=O)oc2c1
inactive

Test call for this compound, please: O=C1NC(=O)C(=Cc2ccc3c(c2)OC(F)(F)O3)S1
active

Test call for this compound, please: O=C(O)c1c(Cl)c(Cl)c(Cl)c(Cl)c1-c1c2cc(I)c(=O)c(I)c-2oc2c(I)c(O)c(I)cc12
active

Test call for this compound, please: c1ccc2c(Cc3c[nH]c4ccccc34)c[nH]c2c1
active

Test call for this compound, please: C=C1C(=O)OC2C=C(C)CCC=C(C)CCC12 (stereo not drawn)
active

Test call for this compound, please: O=C1c2ccccc2-[n+]2ccc3c([nH]c4ccccc43)c21
active

Test call for this compound, please: NC1=N[C@@]2(c3cc(NC(=O)c4ccc(F)cn4)ccc3F)COC[C@@H]2CS1
active

Test call for this compound, please: CC(=O)N(C)C1(c2ccccc2)CCN(CCC[C@]2(c3ccc(Cl)c(Cl)c3)CCCN(C(=O)c3ccccc3)C2)CC1
active

Test call for this compound, please: O=C1c2c(O)cc(O)cc2O[C@H](c2cc(O)c(O)c(O)c2)[C@H]1O
inactive

New cases:
Test call for this compound, please: O=C1NC(=O)C(=Cc2ccc3nccnc3c2)S1
active

Test call for this compound, please: Cc1ccn(-c2ccc(-c3ncco3)cc2)c(=O)c1-c1ccc2nc(N)ncc2c1
active

Test call for this compound, please: CS(=O)c1ccc(-c2nc(-c3ccc(F)cc3)c(-c3ccncc3)[nH]2)cc1 (stereo not drawn)
active

Test call for this compound, please: CON=C(C(=O)N[C@@H]1C(=O)N2C(C(=O)OCOC(=O)C(C)(C)C)=C(C=Cc3scnc3C)CS[C@H]12)c1csc(N)n1
inactive

Test call for this compound, please: Cn1cc(C=C2C(=O)Nc3cccnc32)c2ccccc21
active

Test call for this compound, please: COc1cccc([C@@H](C)NCCCc2ccccc2Cl)c1
inactive

Test call for this compound, please: O=c1cc(-c2ccc(O)cc2)oc2cc(O)cc(O)c12
active

Test call for this compound, please: CC(C(=O)O)c1ccc(-c2ccccc2)c(F)c1 (stereo not drawn)
inactive

Test call for this compound, please: CN(C)Cc1cccc(N=C(c2ccccc2)c2c(O)[nH]c3cc(C(=O)N(C)C)ccc23)c1
active

Test call for this compound, please: NC1CCC(Nc2nc(Nc3ccc(C(=O)N4CCCCC4)cc3)c3ncn(-c4cccc(F)c4)c3n2)CC1 (stereo not drawn)
inactive

Test call for this compound, please: CC[C@@]1(O)C[C@H](O[C@H]2C[C@H](N(C)C)[C@H](O[C@H]3C[C@H](O)[C@H](O[C@H]4CCC(=O)[C@H](C)O4)[C@H](C)O3)[C@H](C)O2)c2c(cc3c(c2O)C(=O)c2c(O)cccc2C3=O)[C@@H]1C(=O)OC
active

Sourced from PubChem BioAssay (NCATS)
